# Nav1.5 % inhibition @ 10 μM listing for each entry below
molecular target: Nav 1.5 (Homo sapiens (Human)); experiment: Inhibition of sodium channels, Red Membrane Potential Dye FLIPR assay, veratridine depolarization; format: cell-based; conditions: HEK-293 cells overexpressing the channel; 10 μM
Sequence (Q14524 whole entry): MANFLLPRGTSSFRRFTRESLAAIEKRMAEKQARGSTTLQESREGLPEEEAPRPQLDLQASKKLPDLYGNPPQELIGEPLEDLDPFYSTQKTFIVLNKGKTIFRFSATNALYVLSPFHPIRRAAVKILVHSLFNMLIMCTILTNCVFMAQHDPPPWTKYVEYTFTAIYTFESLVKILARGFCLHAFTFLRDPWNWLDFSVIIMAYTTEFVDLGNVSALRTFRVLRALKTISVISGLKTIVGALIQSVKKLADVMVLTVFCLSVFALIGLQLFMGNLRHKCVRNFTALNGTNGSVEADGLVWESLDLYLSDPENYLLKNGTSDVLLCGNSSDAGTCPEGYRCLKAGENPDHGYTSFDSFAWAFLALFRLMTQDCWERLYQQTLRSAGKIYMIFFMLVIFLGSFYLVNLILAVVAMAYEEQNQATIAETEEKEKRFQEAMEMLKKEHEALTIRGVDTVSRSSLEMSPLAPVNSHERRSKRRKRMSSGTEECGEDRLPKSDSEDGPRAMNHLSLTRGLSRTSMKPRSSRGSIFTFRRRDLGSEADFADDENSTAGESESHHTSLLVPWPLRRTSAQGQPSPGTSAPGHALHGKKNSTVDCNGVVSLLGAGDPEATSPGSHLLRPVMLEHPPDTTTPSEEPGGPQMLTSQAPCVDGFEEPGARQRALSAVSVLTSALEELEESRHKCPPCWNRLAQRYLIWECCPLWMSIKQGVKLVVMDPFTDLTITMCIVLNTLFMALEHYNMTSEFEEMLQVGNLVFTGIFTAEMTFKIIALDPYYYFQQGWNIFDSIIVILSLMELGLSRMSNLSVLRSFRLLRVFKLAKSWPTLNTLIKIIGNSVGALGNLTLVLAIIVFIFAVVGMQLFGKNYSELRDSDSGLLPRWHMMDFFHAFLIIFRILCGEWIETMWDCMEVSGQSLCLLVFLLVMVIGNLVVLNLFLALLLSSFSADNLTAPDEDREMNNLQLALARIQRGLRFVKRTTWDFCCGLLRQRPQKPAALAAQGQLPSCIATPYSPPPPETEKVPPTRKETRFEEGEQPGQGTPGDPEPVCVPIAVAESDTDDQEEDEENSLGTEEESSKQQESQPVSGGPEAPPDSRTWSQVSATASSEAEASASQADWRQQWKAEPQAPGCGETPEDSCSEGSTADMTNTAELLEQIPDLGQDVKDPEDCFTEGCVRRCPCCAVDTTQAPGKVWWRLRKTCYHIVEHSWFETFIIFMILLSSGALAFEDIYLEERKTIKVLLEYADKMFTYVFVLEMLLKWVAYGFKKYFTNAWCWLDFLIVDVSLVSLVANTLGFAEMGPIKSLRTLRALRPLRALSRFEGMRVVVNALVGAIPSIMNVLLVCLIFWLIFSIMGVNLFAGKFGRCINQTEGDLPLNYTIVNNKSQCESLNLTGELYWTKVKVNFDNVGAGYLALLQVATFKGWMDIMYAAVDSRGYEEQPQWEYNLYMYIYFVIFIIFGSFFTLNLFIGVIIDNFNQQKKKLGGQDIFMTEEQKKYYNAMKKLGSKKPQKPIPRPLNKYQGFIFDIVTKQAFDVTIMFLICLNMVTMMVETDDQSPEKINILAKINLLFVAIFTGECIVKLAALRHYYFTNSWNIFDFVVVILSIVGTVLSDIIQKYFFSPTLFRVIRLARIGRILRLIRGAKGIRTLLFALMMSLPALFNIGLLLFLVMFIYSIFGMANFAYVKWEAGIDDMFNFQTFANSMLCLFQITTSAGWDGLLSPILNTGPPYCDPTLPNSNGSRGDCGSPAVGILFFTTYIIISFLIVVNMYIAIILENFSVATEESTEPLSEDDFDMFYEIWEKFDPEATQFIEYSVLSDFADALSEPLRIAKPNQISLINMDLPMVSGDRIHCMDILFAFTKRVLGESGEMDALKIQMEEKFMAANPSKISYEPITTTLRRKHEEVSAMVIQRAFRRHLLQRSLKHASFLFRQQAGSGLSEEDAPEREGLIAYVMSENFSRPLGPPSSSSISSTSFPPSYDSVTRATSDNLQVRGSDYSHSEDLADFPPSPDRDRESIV
Please answer using a numeric value trailed by its unit.

Recorded results for 6 compounds are shown here.
compound="O=S(=O)(Nc1cccc(F)n1)c1ccc2c(c1)OCCC2c1ccc(C(F)(F)F)cc1O[C@H]1CCOC1 (stereo partly shown)" target_of_assay="Nav 1.5 (Homo sapiens (Human))" measured=43%
compound=COc1cc(C(F)(F)F)ccc1[C@@H]1CCOc2cc(S(=O)(=O)Nc3ncccn3)ccc21 target_of_assay="Nav 1.5 (Homo sapiens (Human))" measured=86%
compound=Cc1ccc(NS(=O)(=O)c2ccc3c(c2)OCC[C@H]3c2ccc(C(F)(F)F)cc2-c2ccnn2C)nc1 target_of_assay="Nav 1.5 (Homo sapiens (Human))" measured=57%
compound=O=S(=O)(Nc1ncccn1)c1ccc2c(c1)OCC[C@@H]2c1ccc(C(F)(F)F)cc1-c1ccc(F)cn1 target_of_assay="Nav 1.5 (Homo sapiens (Human))" measured=65%
compound=O=S(=O)(Nc1ncccn1)c1ccc2c(c1)OCC[C@@H]2c1ccc(C(F)(F)F)cc1N1CCOCC1 target_of_assay="Nav 1.5 (Homo sapiens (Human))" measured=30%
compound=CS(=O)(=O)CCc1cc(C(F)(F)F)ccc1[C@@H]1CCOc2cc(S(=O)(=O)Nc3cccc(F)n3)ccc21 target_of_assay="Nav 1.5 (Homo sapiens (Human))" measured=34%

Turning now to a further compound:
Qu. Given the compound COc1cc(C(F)(F)F)ccc1[C@H]1CCOc2cc(S(=O)(=O)Nc3cccc(F)n3)ccc21 , write its reported Nav1.5 % inhibition @ 10 μM.
Ans. 42%

---

target: Nav 1.7 (Homo sapiens (Human), UniProt Q15858); test: Inhibition of sodium channels, Red Membrane Potential Dye FLIPR assay, veratridine depolarization; type: cell-based; conditions: HEK-293 cells overexpressing the channel; read-out: Nav1.7 IC50
Sequence (Q15858 whole entry): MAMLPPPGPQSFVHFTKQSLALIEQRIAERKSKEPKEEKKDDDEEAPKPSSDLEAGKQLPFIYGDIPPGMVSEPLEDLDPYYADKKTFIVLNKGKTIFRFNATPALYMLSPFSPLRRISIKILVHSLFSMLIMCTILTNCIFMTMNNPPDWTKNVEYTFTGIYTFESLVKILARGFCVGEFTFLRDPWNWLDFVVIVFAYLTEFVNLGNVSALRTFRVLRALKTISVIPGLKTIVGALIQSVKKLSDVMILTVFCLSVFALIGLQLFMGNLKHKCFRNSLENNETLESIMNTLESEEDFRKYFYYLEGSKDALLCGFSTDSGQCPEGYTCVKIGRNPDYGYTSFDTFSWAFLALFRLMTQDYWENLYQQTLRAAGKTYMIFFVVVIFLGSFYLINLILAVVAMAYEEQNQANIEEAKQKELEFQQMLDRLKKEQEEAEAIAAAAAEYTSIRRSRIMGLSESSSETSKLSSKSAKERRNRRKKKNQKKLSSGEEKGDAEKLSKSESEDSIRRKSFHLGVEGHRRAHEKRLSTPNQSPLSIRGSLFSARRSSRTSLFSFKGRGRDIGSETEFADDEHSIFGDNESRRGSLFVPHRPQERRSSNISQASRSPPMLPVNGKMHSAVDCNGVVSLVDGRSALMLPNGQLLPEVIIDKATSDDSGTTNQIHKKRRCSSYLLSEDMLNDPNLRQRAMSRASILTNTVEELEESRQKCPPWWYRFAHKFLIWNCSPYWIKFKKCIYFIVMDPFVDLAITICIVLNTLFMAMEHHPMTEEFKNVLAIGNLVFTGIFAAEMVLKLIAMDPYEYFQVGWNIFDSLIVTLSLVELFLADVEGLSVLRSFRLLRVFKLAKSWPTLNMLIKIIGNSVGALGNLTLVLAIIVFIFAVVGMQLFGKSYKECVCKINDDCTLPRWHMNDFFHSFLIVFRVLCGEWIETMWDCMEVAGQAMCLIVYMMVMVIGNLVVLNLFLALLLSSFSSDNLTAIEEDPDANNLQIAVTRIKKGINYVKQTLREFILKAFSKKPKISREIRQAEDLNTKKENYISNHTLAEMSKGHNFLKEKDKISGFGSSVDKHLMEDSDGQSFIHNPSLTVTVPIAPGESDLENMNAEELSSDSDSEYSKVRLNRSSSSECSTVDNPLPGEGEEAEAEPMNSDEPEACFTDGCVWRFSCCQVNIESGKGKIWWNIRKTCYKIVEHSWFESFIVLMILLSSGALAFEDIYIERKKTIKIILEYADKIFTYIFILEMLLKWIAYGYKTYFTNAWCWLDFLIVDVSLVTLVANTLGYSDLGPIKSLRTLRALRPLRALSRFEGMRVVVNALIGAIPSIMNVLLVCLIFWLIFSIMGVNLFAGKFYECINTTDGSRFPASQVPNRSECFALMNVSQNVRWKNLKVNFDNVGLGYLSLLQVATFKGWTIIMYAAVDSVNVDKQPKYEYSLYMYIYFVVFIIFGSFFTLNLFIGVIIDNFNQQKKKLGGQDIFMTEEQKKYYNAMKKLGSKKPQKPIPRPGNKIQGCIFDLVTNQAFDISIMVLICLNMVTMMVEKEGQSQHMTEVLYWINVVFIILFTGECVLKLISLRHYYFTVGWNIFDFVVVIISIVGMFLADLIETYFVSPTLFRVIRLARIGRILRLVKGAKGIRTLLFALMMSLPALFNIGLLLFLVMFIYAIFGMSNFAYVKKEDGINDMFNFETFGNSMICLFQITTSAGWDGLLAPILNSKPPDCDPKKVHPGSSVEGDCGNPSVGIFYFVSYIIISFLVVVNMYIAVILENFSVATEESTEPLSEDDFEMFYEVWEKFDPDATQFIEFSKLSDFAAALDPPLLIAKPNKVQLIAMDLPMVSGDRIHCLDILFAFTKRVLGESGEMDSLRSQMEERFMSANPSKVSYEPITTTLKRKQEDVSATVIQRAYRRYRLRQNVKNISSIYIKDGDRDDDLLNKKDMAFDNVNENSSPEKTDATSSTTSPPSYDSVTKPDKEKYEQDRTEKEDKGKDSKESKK
metric: pIC50
// pIC50: -log10(molar conc.)

Recorded results for 4 molecules are shown here.
molecule="O=C1COCCN1c1cc(C(F)(F)F)ccc1[C@H]1CCOc2cc(S(=O)(=O)Nc3ncccn3)ccc21 [Example-231]" target_of_assay="Nav 1.7 (Homo sapiens (Human), UniProt Q15858)" measured=6.25
molecule="COc1cc(C(F)(F)F)ccc1[C@H]1CCOc2cc(S(=O)(=O)Nc3cccc(F)n3)ccc21 [Example-229]" target_of_assay="Nav 1.7 (Homo sapiens (Human), UniProt Q15858)" measured=6.81
molecule="Cc1nc(-c2cc(C(F)(F)F)ccc2[C@H]2CCOc3cc(S(=O)(=O)Nc4cccc(F)n4)ccc32)cs1 [Example 62]" target_of_assay="Nav 1.7 (Homo sapiens (Human), UniProt Q15858)" measured=8.30
molecule="COCCCc1cc(C(F)(F)F)ccc1[C@H]1CCOc2cc(S(=O)(=O)Nc3ncc(F)cn3)ccc21 (racemic) [Example 142]" target_of_assay="Nav 1.7 (Homo sapiens (Human), UniProt Q15858)" measured=6.75

Qu. Recall the reported pIC50 of COCCCCc1cc(C(F)(F)F)ccc1[C@H]1CCOc2cc(S(=O)(=O)Nc3cccc(F)n3)ccc21 [Example 152] when tested on Nav 1.7 (Homo sapiens (Human), UniProt Q15858).
Ans. 7.40

Qu. Recall the reported pIC50 of O=S(=O)(Nc1cccc(F)n1)c1ccc2c(c1)OCC[C@H]2c1ccc(C(F)(F)F)cc1-n1cccn1 [Example 89] when tested on Nav 1.7 (Homo sapiens (Human), UniProt Q15858).
Ans. 6.97

Qu. Recall the reported pIC50 of CS(=O)(=O)CCc1cc(C(F)(F)F)ccc1[C@H]1CCOc2cc(S(=O)(=O)Nc3ncccn3)ccc21 [Example 84] when tested on Nav 1.7 (Homo sapiens (Human), UniProt Q15858).
Ans. 5.59
